Target: PDGFRB (human) (UniProt P09619)
Sequence (P09619 whole entry, looked up): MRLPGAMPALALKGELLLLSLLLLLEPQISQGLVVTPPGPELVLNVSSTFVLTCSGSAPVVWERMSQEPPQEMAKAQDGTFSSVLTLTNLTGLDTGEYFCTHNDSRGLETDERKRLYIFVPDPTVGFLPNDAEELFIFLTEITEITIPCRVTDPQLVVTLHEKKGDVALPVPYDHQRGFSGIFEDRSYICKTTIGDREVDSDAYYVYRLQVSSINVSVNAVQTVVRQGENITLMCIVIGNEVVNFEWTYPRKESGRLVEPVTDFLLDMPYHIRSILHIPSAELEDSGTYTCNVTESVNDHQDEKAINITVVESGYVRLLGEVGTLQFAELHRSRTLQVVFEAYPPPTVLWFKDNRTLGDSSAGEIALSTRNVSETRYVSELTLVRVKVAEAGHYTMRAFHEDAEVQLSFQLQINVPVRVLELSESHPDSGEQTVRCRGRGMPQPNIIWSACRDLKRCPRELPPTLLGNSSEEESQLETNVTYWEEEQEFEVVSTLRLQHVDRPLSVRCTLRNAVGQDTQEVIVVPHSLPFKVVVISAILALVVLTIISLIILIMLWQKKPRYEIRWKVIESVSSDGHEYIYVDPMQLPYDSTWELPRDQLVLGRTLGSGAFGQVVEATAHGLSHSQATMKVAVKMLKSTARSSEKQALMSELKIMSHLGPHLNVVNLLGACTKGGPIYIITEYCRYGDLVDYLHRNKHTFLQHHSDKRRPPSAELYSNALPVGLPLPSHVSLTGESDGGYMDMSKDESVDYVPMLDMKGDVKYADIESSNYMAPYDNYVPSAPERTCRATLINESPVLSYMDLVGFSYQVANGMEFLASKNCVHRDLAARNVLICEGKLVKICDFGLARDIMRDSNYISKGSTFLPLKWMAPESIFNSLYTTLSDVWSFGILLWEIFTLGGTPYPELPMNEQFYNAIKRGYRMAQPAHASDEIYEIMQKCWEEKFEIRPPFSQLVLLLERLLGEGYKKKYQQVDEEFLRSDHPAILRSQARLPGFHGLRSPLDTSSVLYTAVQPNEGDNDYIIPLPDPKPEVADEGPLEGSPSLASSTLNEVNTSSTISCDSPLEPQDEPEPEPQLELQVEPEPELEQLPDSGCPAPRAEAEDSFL
Assay: KINOMEscan competition binding
Details: compound 10.0 µM
Labelling: kinase still bound, per cent of control reported below 30% becomes MET; at or above becomes NOT MET.

Example cases with answers are listed next.
• O=C1NC(=O)/C(=C/c2ccc3nccc(-c4ccncc4)c3c2)S1 = NOT MET
• CN(C)C/C=C/C(=O)Nc1ccc(C(=O)Nc2cccc(Nc3nccc(-c4cccnc4)n3)c2)cc1 = MET
• COc1cc(C(=O)N2CCC(N3CCN(C)CC3)CC2)ccc1Nc1ncc2c(n1)N(C)c1ccccc1C(=O)N2C = NOT MET
• O=c1cc(N2CCOCC2)oc2c(-c3cccc4c3sc3ccccc34)cccc12 = NOT MET

Lab note: kinase still bound, per cent of control threshold 30%. Does this compound come in strictly under it? "Cc1n[nH]c2ccc(-c3cncc(OC[C@@H](N)Cc4c[nH]c5ccccc45)c3)cc12"
MET

---

Listed next: entries and their corresponding kinase still bound, per cent of control.
Biological target: EPHA3 (human) (UniProt P29320)
Sequence (P29320 whole entry, looked up): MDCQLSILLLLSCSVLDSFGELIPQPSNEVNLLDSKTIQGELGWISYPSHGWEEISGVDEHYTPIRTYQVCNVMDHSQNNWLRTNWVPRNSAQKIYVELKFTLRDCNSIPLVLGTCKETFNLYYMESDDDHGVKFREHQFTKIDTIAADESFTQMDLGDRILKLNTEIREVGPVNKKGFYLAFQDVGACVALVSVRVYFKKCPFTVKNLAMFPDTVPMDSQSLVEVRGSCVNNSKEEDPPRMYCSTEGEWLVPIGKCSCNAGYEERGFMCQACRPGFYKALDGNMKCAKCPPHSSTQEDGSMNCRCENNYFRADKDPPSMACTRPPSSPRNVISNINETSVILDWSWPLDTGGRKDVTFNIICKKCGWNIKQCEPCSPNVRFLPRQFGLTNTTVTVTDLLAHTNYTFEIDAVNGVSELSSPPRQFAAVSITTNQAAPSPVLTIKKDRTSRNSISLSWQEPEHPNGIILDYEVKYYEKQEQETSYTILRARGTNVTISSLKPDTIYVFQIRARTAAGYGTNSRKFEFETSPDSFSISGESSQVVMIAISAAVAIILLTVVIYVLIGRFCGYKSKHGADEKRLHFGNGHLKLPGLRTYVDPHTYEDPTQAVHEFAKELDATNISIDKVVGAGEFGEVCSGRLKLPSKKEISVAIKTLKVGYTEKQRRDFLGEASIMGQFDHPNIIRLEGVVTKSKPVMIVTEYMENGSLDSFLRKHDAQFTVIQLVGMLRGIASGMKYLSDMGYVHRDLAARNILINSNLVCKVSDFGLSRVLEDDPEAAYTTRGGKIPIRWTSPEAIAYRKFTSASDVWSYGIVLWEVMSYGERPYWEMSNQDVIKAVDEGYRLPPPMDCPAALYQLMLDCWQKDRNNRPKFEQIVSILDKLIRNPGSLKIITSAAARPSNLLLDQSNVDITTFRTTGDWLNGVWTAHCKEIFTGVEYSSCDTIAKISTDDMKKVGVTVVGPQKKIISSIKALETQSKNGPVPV
Test: KINOMEscan competition binding
Details: compound 10.0 µM
Give the value in % but do not write % after it.

The cases that follow already have their kinase still bound, per cent of control on record.
• N#CCNC(=O)c1ccc(-c2ccnc(Nc3ccc(N4CCOCC4)cc3)n2)cc1 = 69
• C=CC(=O)Nc1cc(-n2c(=O)ccc3cnc4ccc(-c5cn[nH]c5)cc4c32)ccc1C = 100

Now for another entry.
Dear colleague, I am looking for the recorded kinase still bound, per cent of control of the following compound: "C=CC(=O)Nc1ccc(CN(C(=O)Nc2c(Cl)c(OC)cc(OC)c2Cl)c2cc(Nc3ccc(N4CCN(C)CC4)cc3)ncn2)cc1"
100

---

Biological target: FER (human)
Assay: KINOMEscan competition binding
Details: compound 10.0 µM
Listed next: entries and their corresponding kinase still bound, per cent of control.
Please give the number followed by its unit.

The cases that follow already have their kinase still bound, per cent of control on record.
• COc1ccc(N(C(=O)Oc2c(C)cccc2C)c2ccnc(Nc3ccc(N4CCN(C)CC4)cc3)n2)c(OC)c1 = 0.85%
• O=C1NC(=O)/C(=C/c2ccc3nccc(-c4ccncc4)c3c2)S1 = 50%

Now for another entry.
Dear colleague, I am looking for the recorded kinase still bound, per cent of control of the following compound: "COc1cc2ncn(-c3cc(OCc4ccccc4C(F)(F)F)c(C(N)=O)s3)c2cc1OC"
100%

---

Target: UniProt Q8IVH8
Assay: KINOMEscan competition binding
Settings: compound 10.0 µM
Observable: kinase still bound, per cent of control (%)
Give the value in % but do not write % after it.

Dear colleague, I am looking for the recorded kinase still bound, per cent of control of the following molecule: "Cc1n[nH]c2ccc(-c3cncc(OC[C@@H](N)Cc4c[nH]c5ccccc45)c3)cc12"
9.5

Dear colleague, I am looking for the recorded kinase still bound, per cent of control of the following molecule: "COc1cc(C(=O)N2CCC(N3CCN(C)CC3)CC2)ccc1Nc1ncc2c(n1)N(C)c1ccccc1C(=O)N2C"
71

Dear colleague, I am looking for the recorded kinase still bound, per cent of control of the following molecule: "CCN1CCN(C(=O)Cc2ccc(Nc3ncc(F)c(Nc4ccc(C(=O)Nc5ccccc5Cl)cc4)n3)cc2)CC1"
42

---

Target: UniProt:P36896
Sequence (P36896 whole entry, looked up): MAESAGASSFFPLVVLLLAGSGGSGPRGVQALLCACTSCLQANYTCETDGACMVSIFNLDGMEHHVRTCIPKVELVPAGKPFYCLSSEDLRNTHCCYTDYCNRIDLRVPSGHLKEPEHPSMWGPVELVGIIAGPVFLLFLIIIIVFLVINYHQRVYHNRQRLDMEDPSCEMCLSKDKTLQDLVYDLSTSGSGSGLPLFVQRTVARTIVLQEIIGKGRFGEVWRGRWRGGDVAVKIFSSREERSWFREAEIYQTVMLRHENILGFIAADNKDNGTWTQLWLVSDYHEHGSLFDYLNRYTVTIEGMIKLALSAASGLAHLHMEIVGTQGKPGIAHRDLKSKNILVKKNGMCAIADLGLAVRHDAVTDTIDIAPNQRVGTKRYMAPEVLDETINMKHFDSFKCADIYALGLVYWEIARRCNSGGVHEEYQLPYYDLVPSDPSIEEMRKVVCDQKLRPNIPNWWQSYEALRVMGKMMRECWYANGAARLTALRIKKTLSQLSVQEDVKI
Assay: KINOMEscan competition binding
Settings: compound 10.0 µM
Observable: kinase still bound, per cent of control (%)
Give the value in % but do not write % after it.

The cases that follow already have their kinase still bound, per cent of control on record.
* N#CCNC(=O)c1ccc(-c2ccnc(Nc3ccc(N4CCOCC4)cc3)n2)cc1 | 38
* C[C@@H](Oc1cc(-c2cnn(C3CCNCC3)c2)cnc1N)c1c(Cl)ccc(F)c1Cl | 9
* NC(=O)Nc1cc(-c2cccc(F)c2)sc1C(=O)N[C@@H]1CCCNC1 | 28
* CCN(CC)CCCCNc1ncc2cc(-c3cc(OC)cc(OC)c3)c(NC(=O)NC(C)(C)C)nc2n1 | 100
* COc1ccc(N(C(=O)Oc2c(C)cccc2C)c2ccnc(Nc3ccc(N4CCN(C)CC4)cc3)n2)c(OC)c1 | 1
* CNC(=O)c1cc(Oc2ccc(NC(=O)Nc3ccc(Cl)c(C(F)(F)F)c3)cc2)ccn1 | 92
* COc1cc2ncn(-c3cc(OCc4ccccc4C(F)(F)F)c(C(N)=O)s3)c2cc1OC | 76
* CS(=O)(=O)N1CCN(Cc2cc3nc(-c4cccc5[nH]ncc45)nc(N4CCOCC4)c3s2)CC1 | 100

Dear colleague, I am looking for the recorded kinase still bound, per cent of control of the following compound: "O=C1NC(=O)/C(=C/c2ccc3nccc(-c4ccncc4)c3c2)S1"
51

---

Biological target: EPHB3 (human) (UniProt P54753)
Sequence (P54753 whole entry, looked up): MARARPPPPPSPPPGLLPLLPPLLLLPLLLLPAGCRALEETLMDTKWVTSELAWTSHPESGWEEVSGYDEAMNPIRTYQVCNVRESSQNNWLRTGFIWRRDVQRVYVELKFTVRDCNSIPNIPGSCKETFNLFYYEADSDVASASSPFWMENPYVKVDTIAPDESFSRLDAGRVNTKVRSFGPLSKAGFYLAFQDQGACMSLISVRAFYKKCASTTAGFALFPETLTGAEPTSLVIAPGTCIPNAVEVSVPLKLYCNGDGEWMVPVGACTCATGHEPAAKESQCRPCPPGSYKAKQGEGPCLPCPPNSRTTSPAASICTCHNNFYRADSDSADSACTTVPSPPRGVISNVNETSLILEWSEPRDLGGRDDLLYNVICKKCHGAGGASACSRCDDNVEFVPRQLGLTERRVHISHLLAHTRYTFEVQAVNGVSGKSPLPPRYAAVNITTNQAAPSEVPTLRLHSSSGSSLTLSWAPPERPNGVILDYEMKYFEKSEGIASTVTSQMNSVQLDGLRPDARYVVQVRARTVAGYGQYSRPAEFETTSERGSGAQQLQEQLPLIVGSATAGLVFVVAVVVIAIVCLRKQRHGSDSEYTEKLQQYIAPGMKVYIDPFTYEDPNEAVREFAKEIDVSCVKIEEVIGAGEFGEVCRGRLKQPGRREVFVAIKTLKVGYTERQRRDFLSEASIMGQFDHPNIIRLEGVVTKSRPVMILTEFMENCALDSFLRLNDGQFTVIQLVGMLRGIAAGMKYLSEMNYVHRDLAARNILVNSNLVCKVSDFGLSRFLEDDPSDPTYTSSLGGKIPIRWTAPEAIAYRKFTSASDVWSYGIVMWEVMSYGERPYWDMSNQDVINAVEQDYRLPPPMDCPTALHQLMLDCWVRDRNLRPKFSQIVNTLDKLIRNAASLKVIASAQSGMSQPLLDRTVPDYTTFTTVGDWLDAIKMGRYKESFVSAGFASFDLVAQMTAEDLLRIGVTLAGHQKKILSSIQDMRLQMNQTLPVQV
Test: KINOMEscan competition binding
Details: compound 10.0 µM
Labelling: kinase still bound, per cent of control reported below 90% becomes Condition met; at or above becomes Condition not met.

Lab note: kinase still bound, per cent of control threshold 90%. Does this molecule come in strictly under it? "C=CC(=O)Nc1cc(-n2c(=O)ccc3cnc4ccc(-c5cn[nH]c5)cc4c32)ccc1C"
Condition not met

Lab note: kinase still bound, per cent of control threshold 90%. Does this molecule come in strictly under it? "COCC(=O)NC/C=C/c1ccc2ncnc(Nc3ccc(Oc4ccc(C)nc4)c(C)c3)c2c1"
Condition met

Lab note: kinase still bound, per cent of control threshold 90%. Does this molecule come in strictly under it? "COc1cc(N2CCN(C)CC2)ccc1Nc1ncc2c(n1)N(C)c1ccccc1C(=O)N2C"
Condition not met

Lab note: kinase still bound, per cent of control threshold 90%. Does this molecule come in strictly under it? "COc1cc2ncn(-c3cc(OCc4ccccc4C(F)(F)F)c(C(N)=O)s3)c2cc1OC"
Condition met

Lab note: kinase still bound, per cent of control threshold 90%. Does this molecule come in strictly under it? "COc1cc2ncnc(-n3nc(-c4ccccn4)nc3N)c2cc1OC"
Condition met

Lab note: kinase still bound, per cent of control threshold 90%. Does this molecule come in strictly under it? "COc1ccc(N(C(=O)Oc2c(C)cccc2C)c2ccnc(Nc3ccc(N4CCN(C)CC4)cc3)n2)c(OC)c1"
Condition met

---

Target: UniProt:O15197
Sequence (O15197 whole entry, looked up): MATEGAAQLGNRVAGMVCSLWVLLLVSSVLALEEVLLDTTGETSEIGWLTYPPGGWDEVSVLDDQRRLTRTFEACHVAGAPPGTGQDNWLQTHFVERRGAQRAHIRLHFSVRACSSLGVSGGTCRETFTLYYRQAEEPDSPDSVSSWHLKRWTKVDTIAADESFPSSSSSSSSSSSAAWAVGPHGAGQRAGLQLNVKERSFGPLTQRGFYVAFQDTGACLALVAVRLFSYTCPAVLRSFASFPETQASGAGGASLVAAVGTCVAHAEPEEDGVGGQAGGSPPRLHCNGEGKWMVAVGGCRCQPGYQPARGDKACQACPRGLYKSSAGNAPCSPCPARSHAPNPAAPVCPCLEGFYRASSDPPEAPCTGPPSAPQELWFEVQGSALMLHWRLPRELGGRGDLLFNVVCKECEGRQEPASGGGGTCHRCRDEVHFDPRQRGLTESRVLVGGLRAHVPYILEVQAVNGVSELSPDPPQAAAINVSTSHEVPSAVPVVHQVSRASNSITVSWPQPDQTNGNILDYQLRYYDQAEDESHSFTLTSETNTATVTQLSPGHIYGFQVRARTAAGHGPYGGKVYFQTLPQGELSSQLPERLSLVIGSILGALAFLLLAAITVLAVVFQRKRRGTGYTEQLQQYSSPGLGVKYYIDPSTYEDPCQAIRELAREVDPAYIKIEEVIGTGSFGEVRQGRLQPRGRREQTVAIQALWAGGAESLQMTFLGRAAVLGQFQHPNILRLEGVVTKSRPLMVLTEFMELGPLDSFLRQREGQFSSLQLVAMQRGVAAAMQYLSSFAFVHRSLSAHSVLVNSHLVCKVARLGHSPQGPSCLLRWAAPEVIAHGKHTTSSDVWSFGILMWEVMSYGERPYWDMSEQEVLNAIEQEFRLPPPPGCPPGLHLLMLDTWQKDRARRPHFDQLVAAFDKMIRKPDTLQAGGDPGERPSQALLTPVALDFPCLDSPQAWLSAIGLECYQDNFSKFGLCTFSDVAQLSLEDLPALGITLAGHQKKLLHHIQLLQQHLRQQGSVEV
Test: KINOMEscan competition binding
Conditions: compound 10.0 µM
Observable: kinase still bound, per cent of control (%)
Give the value in % but do not write % after it.

• CCN(CC)CCCCNc1ncc2c(n1)N(C)C(=O)N(c1c(Cl)c(OC)cc(OC)c1Cl)C2 = 5.2
• CN(C)C/C=C/C(=O)Nc1ccc(C(=O)Nc2cccc(Nc3nccc(-c4cccnc4)n3)c2)cc1 = 3.9
• O=C(Nc1cccc(Nc2ncc(Br)c(NCCc3cnc[nH]3)n2)c1)N1CCCC1 = 0.2
• COc1cc(C(=O)N2CCC(N3CCN(C)CC3)CC2)ccc1Nc1ncc2c(n1)N(C)c1ccccc1C(=O)N2C = 31
• CNC(=O)c1cc(Oc2ccc(NC(=O)Nc3ccc(Cl)c(C(F)(F)F)c3)cc2)ccn1 = 3

Dear colleague, I am looking for the recorded kinase still bound, per cent of control of the following molecule: "C[C@@H](Oc1cc(-c2cnn(C3CCNCC3)c2)cnc1N)c1c(Cl)ccc(F)c1Cl"
0.2

Dear colleague, I am looking for the recorded kinase still bound, per cent of control of the following molecule: "N#CCNC(=O)c1ccc(-c2ccnc(Nc3ccc(N4CCOCC4)cc3)n2)cc1"
58

Dear colleague, I am looking for the recorded kinase still bound, per cent of control of the following molecule: "NC(=O)Nc1cc(-c2cccc(F)c2)sc1C(=O)N[C@@H]1CCCNC1"
50

---

Target: CDK15 (human)
Experiment: KINOMEscan competition binding
Settings: compound 10.0 µM
Observable: kinase still bound, per cent of control (%)
Give the value in % but do not write % after it.

The cases that follow already have their kinase still bound, per cent of control on record.
• CCN1CCN(C(=O)Cc2ccc(Nc3ncc(F)c(Nc4ccc(C(=O)Nc5ccccc5Cl)cc4)n3)cc2)CC1 = 64
• C[C@@H](Oc1cc(-c2cnn(C3CCNCC3)c2)cnc1N)c1c(Cl)ccc(F)c1Cl = 73

Now for another entry.
Dear colleague, I am looking for the recorded kinase still bound, per cent of control of the following compound: "O=c1cc(N2CCOCC2)oc2c(-c3cccc4c3sc3ccccc34)cccc12"
85

---

Listed next: entries and their corresponding kinase still bound, per cent of control.
Target: NEK2 (human) (UniProt P51955)
Sequence (P51955 whole entry, looked up): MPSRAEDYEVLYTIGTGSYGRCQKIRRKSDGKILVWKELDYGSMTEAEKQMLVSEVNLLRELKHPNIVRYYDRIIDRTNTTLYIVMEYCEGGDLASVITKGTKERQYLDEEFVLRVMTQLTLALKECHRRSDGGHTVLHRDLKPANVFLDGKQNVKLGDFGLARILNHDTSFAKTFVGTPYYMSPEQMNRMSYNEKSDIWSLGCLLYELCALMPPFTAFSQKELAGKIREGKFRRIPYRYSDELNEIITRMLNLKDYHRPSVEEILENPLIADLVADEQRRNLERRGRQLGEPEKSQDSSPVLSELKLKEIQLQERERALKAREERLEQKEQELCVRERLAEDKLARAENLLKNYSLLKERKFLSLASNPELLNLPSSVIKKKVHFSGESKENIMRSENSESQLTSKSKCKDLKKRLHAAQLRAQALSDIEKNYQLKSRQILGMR
Assay: KINOMEscan competition binding
Conditions: compound 10.0 µM
Give the value in % but do not write % after it.

The cases that follow already have their kinase still bound, per cent of control on record.
• CCN1CCN(C(=O)Cc2ccc(Nc3ncc(F)c(Nc4ccc(C(=O)Nc5ccccc5Cl)cc4)n3)cc2)CC1 = 87
• COc1ccc(N(C(=O)Oc2c(C)cccc2C)c2ccnc(Nc3ccc(N4CCN(C)CC4)cc3)n2)c(OC)c1 = 100
• CNC(=O)c1ccc(Nc2cc(Nc3ccccc3S(=O)(=O)C(C)C)c3cc[nH]c3n2)nc1 = 100
• COc1cc2ncn(-c3cc(OCc4ccccc4C(F)(F)F)c(C(N)=O)s3)c2cc1OC = 14
• N#CCNC(=O)c1ccc(-c2ccnc(Nc3ccc(N4CCOCC4)cc3)n2)cc1 = 77
• CCN(CC)CCCCNc1ncc2cc(-c3cc(OC)cc(OC)c3)c(NC(=O)NC(C)(C)C)nc2n1 = 100

Dear colleague, I am looking for the recorded kinase still bound, per cent of control of the following compound: "COc1cc(N2CCN(C)CC2)ccc1Nc1ncc2c(n1)N(C)c1ccccc1C(=O)N2C"
100

Dear colleague, I am looking for the recorded kinase still bound, per cent of control of the following compound: "COCC(=O)NC/C=C/c1ccc2ncnc(Nc3ccc(Oc4ccc(C)nc4)c(C)c3)c2c1"
100

Dear colleague, I am looking for the recorded kinase still bound, per cent of control of the following compound: "CN(C)C/C=C/C(=O)Nc1ccc(C(=O)Nc2cccc(Nc3nccc(-c4cccnc4)n3)c2)cc1"
1.1

Dear colleague, I am looking for the recorded kinase still bound, per cent of control of the following compound: "C=CC(=O)Nc1cc(-n2c(=O)ccc3cnc4ccc(-c5cn[nH]c5)cc4c32)ccc1C"
100

Dear colleague, I am looking for the recorded kinase still bound, per cent of control of the following compound: "O=c1cc(N2CCOCC2)oc2c(-c3cccc4c3sc3ccccc34)cccc12"
96
